Test system: granulation tissue formation caused by implantation of cotton pellets
Test: Granuloma formation test (local cotton pellet granuloma assay)
Type: in vivo, rat
Conditions: Table IV, 1000 μg/pellet
We begin with a simple list: items and their reported Thymus wt..
State the answer as a number, implicitly in mg.

Qu. What value of Thymus wt. on granulation tissue formation caused by implantation of cotton pellets does CC(C)OC(=O)O[C@]1(C(=O)OCCl)CC[C@H]2[C@@H]3CCC4=CC(=O)C=C[C@]4(C)[C@H]3[C@@H](O)C[C@@]21C have?
Ans. 423

Qu. What value of Thymus wt. on granulation tissue formation caused by implantation of cotton pellets does CC(C)OC(=O)O[C@]1(C(=O)OCCl)CC[C@H]2[C@@H]3CCC4=CC(=O)CC[C@]4(C)[C@H]3[C@@H](O)C[C@@]21C have?
Ans. 464

Qu. What value of Thymus wt. on granulation tissue formation caused by implantation of cotton pellets does CCCCC(=O)O[C@]1(C(=O)CO)[C@@H](C)C[C@H]2[C@@H]3CCC4=CC(=O)C=C[C@]4(C)[C@@]3(F)[C@@H](O)C[C@@]21C [Betamethasone 17-valerate, reference compound] have?
Ans. 77

Qu. What value of Thymus wt. on granulation tissue formation caused by implantation of cotton pellets does CCCC(=O)O[C@]1(C(=O)CO)CC[C@H]2[C@@H]3CCC4=CC(=O)CC[C@]4(C)[C@H]3[C@@H](O)C[C@@]21C [Hydrocortisone 17-butyrate, reference compound] have?
Ans. 99

// data source = patent US6610675B1
